molecular target: Lysine-specific histone demethylase 1A (Homo sapiens); experiment: Inhibition of recombinant LSD1 (unknown origin) expressed in Escherichia coli BL21 (DE3) using H3K4me2 peptide as substrate incubated for 30 mins by fluorescence based microplate reader assay

| COMPOUND | TARGET | COMPARATOR | IC50 (µM) |
| --- | --- | --- | --- |
| CN1CCN(CCCN2c3ccccc3Sc3ccccc32)CC1 [PERAZINE] | Lysine-specific histone demethylase 1A (Homo sapiens) | = | 0.909 |
| CN(C)CCCN1c2ccccc2Sc2ccccc21 [PROMAZINE] | Lysine-specific histone demethylase 1A (Homo sapiens) | = | 4.71 |
| CN(C)CCCN1c2ccccc2Sc2ccc(Cl)cc21 [CHLORPROMAZINE] | Lysine-specific histone demethylase 1A (Homo sapiens) | = | 5.14 |
| CN(C)CCCN1c2ccccc2Sc2ccc(C(F)(F)F)cc21 [TRIFLUPROMAZINE] | Lysine-specific histone demethylase 1A (Homo sapiens) | > | 10 |
| c1ccc2c(c1)Sc1ccccc1N2CCN1CCOCC1 | Lysine-specific histone demethylase 1A (Homo sapiens) | = | 0.247 |
